Reported IC50 for target or system HsGSK3β (Homo sapiens), by entry.

Nc1nc(Nc2ccccc2)sc1C(=O)c1c(F)cccc1F ... 5 nM
Cc1cccc(C)c1Nc1nc(N)c(C(=O)c2ccccc2)s1 ... 200 nM
Cc1ccc(Nc2nc(N)c(C(=O)c3ccccc3)s2)cc1C ... 2 nM

Exercise: I have this molecule here, Nc1nc(NC2CCCCC2)sc1C(=O)c1ccccc1 , and I need its recorded IC50.
Key: 2 nM

Exercise: I have this molecule here, COc1cccc(OC)c1C(=O)c1sc(Nc2ccccc2)nc1N , and I need its recorded IC50.
Key: 2000 nM

* * *

Reported IC50 for target or system HsGSK3β (Homo sapiens, UniProt P49841), by entry.
Record the value in nM, omitting the unit from your answer.

Worked cases, answers included:
Nc1nc(NCCc2ccccc2)sc1C(=O)c1ccccc1 [Compound 21] ... 3
Nc1nc(Nc2ccccc2)sc1C(=O)c1cccc(Br)c1 [Compound 16] ... 5

// next item, IC50 requested
Exercise: Query IC50 on HsGSK3β (Homo sapiens, UniProt P49841) for Nc1nc(NCC2CCCCC2)sc1C(=O)c1ccccc1 [Compound 20]
Sequence (P49841 whole entry): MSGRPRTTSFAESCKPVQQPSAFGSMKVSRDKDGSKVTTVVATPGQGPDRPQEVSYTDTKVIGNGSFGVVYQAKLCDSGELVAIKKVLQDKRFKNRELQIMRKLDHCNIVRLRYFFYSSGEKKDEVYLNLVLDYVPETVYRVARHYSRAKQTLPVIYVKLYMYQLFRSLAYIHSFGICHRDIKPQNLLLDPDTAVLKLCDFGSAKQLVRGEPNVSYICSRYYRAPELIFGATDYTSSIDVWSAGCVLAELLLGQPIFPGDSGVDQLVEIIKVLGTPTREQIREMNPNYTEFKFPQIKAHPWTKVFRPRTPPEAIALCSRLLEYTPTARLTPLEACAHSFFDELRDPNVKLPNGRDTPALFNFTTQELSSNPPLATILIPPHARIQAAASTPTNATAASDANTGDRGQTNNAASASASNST
Key: 20

The reported measurements were obtained from paper PMC3728731.
